test: Pharmacokinetic study of 5 compounds in rat plasma after oral administration of Zuogui Pill extract (HPLC-MS/MS, noncompartmental analysis); assay type: in vivo, Female Sprague-Dawley rats; details: normal rats, oral Zuogui Pill extract 1.5 mL/100 g, n = 6

compound | units-of-measure | AUC0–∞
OCC1=C[C@@H](O)[C@@H]2C=CO[C@@H](O[C@@H]3O[C@H](CO)[C@@H](O)[C@H](O)[C@H]3O)[C@H]12 | h∗ng/mL | 204.69
COC(=O)C1=CO[C@@H](O[C@@H]2O[C@H](CO)[C@@H](O)[C@H](O)[C@H]2O)[C@@H]2[C@@H](C)[C@@H](O)C[C@H]12 | h∗ng/mL | 20523.97
COC(=O)C1=CO[C@@H](O[C@@H]2O[C@H](CO)[C@@H](O)[C@H](O)[C@H]2O)[C@@H]2[C@H](C)O[C@@H](O)C[C@H]12 [Morroniside, morroniside] | h∗ng/mL | 2171.33
O=C(/C=C/c1ccc(O)c(O)c1)O[C@@H]1C[C@](O)(C(=O)O)C[C@@H](O)[C@H]1O | h∗ng/mL | 546.26

====

Readings of MRT last for the listed molecules
experiment: Pharmacokinetic study of 5 compounds in rat plasma after oral administration of Zuogui Pill extract (HPLC-MS/MS, noncompartmental analysis); type: in vivo, Female Sprague-Dawley rats; conditions: female, Sprague-Dawley, rat, po, 1.5 mL/100 g, normal rats, oral Zuogui Pill extract 1.5 mL/100 g, n = 6, read-out: MRT0–t

molecule | MRT last
OCC1=C[C@@H](O)[C@@H]2C=CO[C@@H](O[C@@H]3O[C@H](CO)[C@@H](O)[C@H](O)[C@H]3O)[C@H]12 | 5.38 h
O=Cc1ccc(O)c(O)c1 | 5.14 h
O=C(/C=C/c1ccc(O)c(O)c1)O[C@@H]1C[C@](O)(C(=O)O)C[C@@H](O)[C@H]1O | 5.46 h
COC(=O)C1=CO[C@@H](O[C@@H]2O[C@H](CO)[C@@H](O)[C@H](O)[C@H]2O)[C@@H]2[C@@H](C)[C@@H](O)C[C@H]12 | 4.58 h
COC(=O)C1=CO[C@@H](O[C@@H]2O[C@H](CO)[C@@H](O)[C@H](O)[C@H]2O)[C@@H]2[C@H](C)O[C@@H](O)C[C@H]12 [Morroniside, morroniside] | 3.41 h

====

Readings of AUC0–∞ for the listed compounds
experiment: Pharmacokinetic study of 5 compounds in rat plasma after oral administration of Zuogui Pill extract (HPLC-MS/MS, noncompartmental analysis); format: in vivo, Female Sprague-Dawley rats; conditions: osteoporotic rats with kidney-yin-deficiency, oral Zuogui Pill extract 1.5 mL/100 g, n = 6

compound | AUC0–∞
O=Cc1ccc(O)c(O)c1 [Protocatechuic aldehyde, protocatechuic aldehyde] | 28.87 ± 2.69^∗∗ h∗ng/mL
O=C(/C=C/c1ccc(O)c(O)c1)O[C@@H]1C[C@](O)(C(=O)O)C[C@@H](O)[C@H]1O [Chlorogenic acid, chlorogenic acid] | 225.89 ± 25.03^∗∗ h∗ng/mL
COC(=O)C1=CO[C@@H](O[C@@H]2O[C@H](CO)[C@@H](O)[C@H](O)[C@H]2O)[C@@H]2[C@H](C)O[C@@H](O)C[C@H]12 [Morroniside, morroniside] | 3782.41 ± 832.52^∗∗ h∗ng/mL
COC(=O)C1=CO[C@@H](O[C@@H]2O[C@H](CO)[C@@H](O)[C@H](O)[C@H]2O)[C@@H]2[C@@H](C)[C@@H](O)C[C@H]12 [Loganin, loganin] | 41727.10 ± 6203.34^∗∗ h∗ng/mL
OCC1=C[C@@H](O)[C@@H]2C=CO[C@@H](O[C@@H]3O[C@H](CO)[C@@H](O)[C@H](O)[C@H]3O)[C@H]12 [Aucubin, aucubin] | 272.67 ± 70.63^∗∗ h∗ng/mL

====

assay: Pharmacokinetic study of 5 compounds in rat plasma after oral administration of Zuogui Pill extract (HPLC-MS/MS, noncompartmental analysis); type: in vivo, Female Sprague-Dawley rats; conditions: female, Sprague-Dawley, rat, po, 1.5 mL/100 g, osteoporotic rats with kidney-yin-deficiency, oral Zuogui Pill extract 1.5 mL/100 g, n = 6, read-out: CL_F_obs (converted)
Readings of CL/F for the listed molecules

molecule | CL/F [mL/min/kg]
COC(=O)C1=CO[C@@H](O[C@@H]2O[C@H](CO)[C@@H](O)[C@H](O)[C@H]2O)[C@@H]2[C@H](C)O[C@@H](O)C[C@H]12 [Morroniside, morroniside] | 28.3
O=C(/C=C/c1ccc(O)c(O)c1)O[C@@H]1C[C@](O)(C(=O)O)C[C@@H](O)[C@H]1O | 37.1
COC(=O)C1=CO[C@@H](O[C@@H]2O[C@H](CO)[C@@H](O)[C@H](O)[C@H]2O)[C@@H]2[C@@H](C)[C@@H](O)C[C@H]12 | 2.94
O=Cc1ccc(O)c(O)c1 | 48.9
OCC1=C[C@@H](O)[C@@H]2C=CO[C@@H](O[C@@H]3O[C@H](CO)[C@@H](O)[C@H](O)[C@H]3O)[C@H]12 | 16

====

test: Pharmacokinetic study of 5 compounds in rat plasma after oral administration of Zuogui Pill extract (HPLC-MS/MS, noncompartmental analysis); assay type: in vivo, Female Sprague-Dawley rats; details: female, Sprague-Dawley, rat, po, 1.5 mL/100 g, osteoporotic rats with kidney-yang-deficiency, oral Zuogui Pill extract 1.5 mL/100 g, n = 6
property-label: Cmax (ng/mL)

molecule | reading
OCC1=C[C@@H](O)[C@@H]2C=CO[C@@H](O[C@@H]3O[C@H](CO)[C@@H](O)[C@H](O)[C@H]3O)[C@H]12 | 96
COC(=O)C1=CO[C@@H](O[C@@H]2O[C@H](CO)[C@@H](O)[C@H](O)[C@H]2O)[C@@H]2[C@@H](C)[C@@H](O)C[C@H]12 | 14.7
COC(=O)C1=CO[C@@H](O[C@@H]2O[C@H](CO)[C@@H](O)[C@H](O)[C@H]2O)[C@@H]2[C@H](C)O[C@@H](O)C[C@H]12 [Morroniside, morroniside] | 1450
O=C(/C=C/c1ccc(O)c(O)c1)O[C@@H]1C[C@](O)(C(=O)O)C[C@@H](O)[C@H]1O | 430
O=Cc1ccc(O)c(O)c1 | 11.4

====

assay: Pharmacokinetic study of 5 compounds in rat plasma after oral administration of Zuogui Pill extract (HPLC-MS/MS, noncompartmental analysis); format: in vivo, Female Sprague-Dawley rats; details: female, Sprague-Dawley, rat, po, 1.5 mL/100 g, osteoporosis rats (ovariectomized), oral Zuogui Pill extract 1.5 mL/100 g, n = 6

molecule | units-of-measure | Tmax
O=Cc1ccc(O)c(O)c1 [Protocatechuic aldehyde, protocatechuic aldehyde] | min | 18
COC(=O)C1=CO[C@@H](O[C@@H]2O[C@H](CO)[C@@H](O)[C@H](O)[C@H]2O)[C@@H]2[C@@H](C)[C@@H](O)C[C@H]12 [Loganin, loganin] | min | 15
O=C(/C=C/c1ccc(O)c(O)c1)O[C@@H]1C[C@](O)(C(=O)O)C[C@@H](O)[C@H]1O [Chlorogenic acid, chlorogenic acid] | min | 15.6
OCC1=C[C@@H](O)[C@@H]2C=CO[C@@H](O[C@@H]3O[C@H](CO)[C@@H](O)[C@H](O)[C@H]3O)[C@H]12 [Aucubin, aucubin] | min | 10.2
COC(=O)C1=CO[C@@H](O[C@@H]2O[C@H](CO)[C@@H](O)[C@H](O)[C@H]2O)[C@@H]2[C@H](C)O[C@@H](O)C[C@H]12 [Morroniside, morroniside] | min | 15.6

====

experiment: Pharmacokinetic study of 5 compounds in rat plasma after oral administration of Zuogui Pill extract (HPLC-MS/MS, noncompartmental analysis); format: in vivo, Female Sprague-Dawley rats; conditions: osteoporotic rats with kidney-yang-deficiency, oral Zuogui Pill extract 1.5 mL/100 g, n = 6
property-label: AUC0–t

compound | reading
COC(=O)C1=CO[C@@H](O[C@@H]2O[C@H](CO)[C@@H](O)[C@H](O)[C@H]2O)[C@@H]2[C@H](C)O[C@@H](O)C[C@H]12 [Morroniside, morroniside] | 1726.42 ± 217.11 h∗ng/mL
O=C(/C=C/c1ccc(O)c(O)c1)O[C@@H]1C[C@](O)(C(=O)O)C[C@@H](O)[C@H]1O | 263.13 ± 40.25^∗∗ h∗ng/mL
OCC1=C[C@@H](O)[C@@H]2C=CO[C@@H](O[C@@H]3O[C@H](CO)[C@@H](O)[C@H](O)[C@H]3O)[C@H]12 | 48.33 ± 14.05^∗∗ h∗ng/mL
O=Cc1ccc(O)c(O)c1 | 24.70 ± 1.69^∗∗ h∗ng/mL

====

Readings of Stability, Room temperature for 4 h, Mean for the listed compounds
experiment: Stability of analytes in rat plasma (QC samples) under storage conditions; details: 25°C, middle QC (40, 800, 160, 20, 2 ng/mL in the same order), n = 5
property-label: Stability, Room temperature for 4 h, Mean (%)

compound | reading
O=Cc1ccc(O)c(O)c1 | 90.9
O=C(/C=C/c1ccc(O)c(O)c1)O[C@@H]1C[C@](O)(C(=O)O)C[C@@H](O)[C@H]1O | 85.9
OCC1=C[C@@H](O)[C@@H]2C=CO[C@@H](O[C@@H]3O[C@H](CO)[C@@H](O)[C@H](O)[C@H]3O)[C@H]12 | 91.3
COC(=O)C1=CO[C@@H](O[C@@H]2O[C@H](CO)[C@@H](O)[C@H](O)[C@H]2O)[C@@H]2[C@H](C)O[C@@H](O)C[C@H]12 [Morroniside, morroniside] | 86.1
COC(=O)C1=CO[C@@H](O[C@@H]2O[C@H](CO)[C@@H](O)[C@H](O)[C@H]2O)[C@@H]2[C@@H](C)[C@@H](O)C[C@H]12 | 87.4
